Values were extracted from ChEMBL document CHEMBL1153198.

Measured IC50 by item
Molecular target: Transforming protein RhoA/Rho-related GTP-binding protein RhoC (Homo sapiens, UniProt P61586+P08134)
Test: Inhibition of RhoA/C-mediated transcriptional response in human PC3 cells by serum response factor-luciferase reporter gene assay
Assay type: cell-based
Details: pc-3
Record the value in µM, omitting the unit from your answer.

// known answers, use as guide
O=C(CONC(=O)c1cc(C(F)(F)F)cc(C(F)(F)F)c1)Nc1cccc(Cl)c1
5.9
O=C(Nc1ccc(Cl)cc1)C1CCN(C(=O)c2cc(C(F)(F)F)cc(C(F)(F)F)c2)CC1
16

# context switch: different molecule, same IC50
// O=C(Nc1ccc(Cl)cc1)C1CCCN1C(=O)c1cc(C(F)(F)F)cc(C(F)(F)F)c1 (stereo not given) : IC50 value = 69

###

System: PC-3
Test: Cytotoxicity against human PC3 cells assessed as inhibition of mitochondrial metabolism at 100 uM by WST-1 assay
Assay type: functional
Measured inhibition at 100 µM by item

O=C(c1cc(C(F)(F)F)cc(C(F)(F)F)c1)N1CCC(Nc2ccc(Cl)cc2)CC1
0%

// "O=C(CONC(=O)c1cccc(C(F)(F)F)c1)Nc1ccc(Cl)cc1" : inhibition at 100 µM value = 58%

// "O=C(CONC(=O)c1ccc(C(F)(F)F)cc1)Nc1ccc(Cl)cc1" : inhibition at 100 µM value = 56%

// O=C(Nc1ccc(Cl)cc1)C1CCN(C(=O)c2cc(C(F)(F)F)cc(C(F)(F)F)c2)C1 (centres undefined) : inhibition at 100 µM value = 67%

// O=C(CC1CC(c2cc(C(F)(F)F)cc(C(F)(F)F)c2)=NO1)Nc1ccc(Cl)cc1 (centres undefined) : inhibition at 100 µM value = 38%

// "O=C(CONC(=O)c1cc(C(F)(F)F)cc(C(F)(F)F)c1)Nc1ccccc1" : inhibition at 100 µM value = 37%

// O=C(CC1CCCCN1C(=O)c1cc(C(F)(F)F)cc(C(F)(F)F)c1)Nc1ccc(Cl)cc1 (centres undefined) : inhibition at 100 µM value = 14%

// "O=C(Nc1cc(C(F)(F)F)cc(C(F)(F)F)c1)C1CCN(C(=O)c2ccc(Cl)cc2)CC1" : inhibition at 100 µM value = 88%

// "O=C(CCNC(=O)c1cc(C(F)(F)F)cc(C(F)(F)F)c1)Nc1ccc(Cl)cc1" : inhibition at 100 µM value = 10%

###

Biological target: Transforming protein RhoA/Rho-related GTP-binding protein RhoC (Homo sapiens, UniProt P61586+P08134)
Assay: Inhibition of RhoA/C-mediated transcriptional response in human PC3 cells by serum response factor-luciferase reporter gene assay
Type: cell-based
Settings: pc-3
# y = IC50 below 8 µM (exclusive); n = IC50 at/above 8 µM

Worked set:
O=C(NCCCOc1ccc(Cl)cc1)c1cc(C(F)(F)F)cc(C(F)(F)F)c1
n
O=C(CONC(=O)c1cc(C(F)(F)F)cc(C(F)(F)F)c1)Nc1ccc(Cl)cc1
y
O=C(CONC(=O)c1ccc(Cl)cc1)Nc1cc(C(F)(F)F)cc(C(F)(F)F)c1
n

Q: Say whether its IC50 is strictly beneath 8 µM. Entry: "O=C(CCNC(=O)c1cc(C(F)(F)F)cc(C(F)(F)F)c1)Nc1ccc(Cl)cc1"
Result: n

Q: Say whether its IC50 is strictly beneath 8 µM. Entry: "O=C(Nc1ccc(Cl)cc1)c1ccc(NC(=O)c2cc(C(F)(F)F)cc(C(F)(F)F)c2)cc1"
Result: n

Q: Say whether its IC50 is strictly beneath 8 µM. Entry: "O=C(c1cc(C(F)(F)F)cc(C(F)(F)F)c1)N1CCC(=O)N(c2ccc(Cl)cc2)CC1"
Result: n

Q: Say whether its IC50 is strictly beneath 8 µM. Entry: "FC(F)(F)c1cc(CNCCCNc2ccc(Cl)cc2)cc(C(F)(F)F)c1"
Result: n

Q: Say whether its IC50 is strictly beneath 8 µM. Entry: "O=C(Nc1ccc(Cl)cc1)c1cccc(NC(=O)c2cc(C(F)(F)F)cc(C(F)(F)F)c2)c1"
Result: y

Q: Say whether its IC50 is strictly beneath 8 µM. Entry: "O=C(CONC(=O)c1cc(C(F)(F)F)cc(C(F)(F)F)c1)Nc1ccccc1"
Result: n

Q: Say whether its IC50 is strictly beneath 8 µM. Entry: "O=C(NCCCNc1ccc(Cl)cc1)c1cc(C(F)(F)F)cc(C(F)(F)F)c1"
Result: y

Q: Say whether its IC50 is strictly beneath 8 µM. Entry: "O=C(NCCc1cn(-c2ccc(Cl)cc2)nn1)c1cc(C(F)(F)F)cc(C(F)(F)F)c1"
Result: n

Q: Say whether its IC50 is strictly beneath 8 µM. Entry: O=C(Nc1ccc(Cl)cc1)C1CCN(C(=O)c2cc(C(F)(F)F)cc(C(F)(F)F)c2)C1 (stereo not drawn)
Result: n
